Taken from PubChem BioAssay (NCI).

This listing pairs molecules with measured growth.
# System: RPMI-8226 leukemia
# procedureSummary: NCI-60 one-dose screen, 48 h (100 = growth as untreated, 0 = no growth, -100 = all killed)
# measurementParameters: 10 µM unless noted
This is part of a sample that, as a whole, favours compounds with a hit. Of some 83,000 tested, about 20% had one in any assay.
The figure you give is taken to be in %; do not add the unit.

Examples from the recorded data:
- molecule: "CCOC(=O)CSCCC#N"
  growth / %: 106
- molecule: "O=C(O)C1CSC(c2ccccc2)N1 (centres undefined)"
  growth / %: 107
- molecule: "O=C(CC(CC(=O)c1ccccc1)c1ccccn1)c1ccccc1"
  growth / %: 96.8

Sample "CCCCCC(=O)OCCC1CCCCC1" , system: RPMI-8226 leukemia. Its growth is 103

Sample CC(c1ccccc1)N(C)C (centres undefined) , system: RPMI-8226 leukemia. Its growth is 155

Sample O=C1C=C(c2ccccc2)C(O)(c2ccccc2)C1 (centres undefined) , system: RPMI-8226 leukemia. Its growth is 98.1

Sample CCN(CC)CCCC(C)NC(=S)N/N=C(\C)c1ccccn1 (centres undefined) , system: RPMI-8226 leukemia. Its growth is 58.9

Sample "CC(=O)CSc1ncnc2nc[nH]c12" , system: RPMI-8226 leukemia. Its growth is 76.6

Sample "COc1cccc(C(=O)O)c1OC" , system: RPMI-8226 leukemia. Its growth is 101

Sample "CSCC[C@@H]1C(=O)N(C)[C@H](C(C)(C)C)N1C(=O)c1ccccc1" , system: RPMI-8226 leukemia. Its growth is 117

Sample "O=C(c1ccccc1O)N1CCCC1" , system: RPMI-8226 leukemia. Its growth is 94.8

Sample "Cc1[nH]n(-c2ccccc2)c(=O)c1C=NC(=S)C(N)=S" , system: RPMI-8226 leukemia. Its growth is 94.6

Sample "COc1ccc(C(=O)C(=O)c2ccccc2)cc1" , system: RPMI-8226 leukemia. Its growth is 103

Sample "O=S(=O)(c1ccc(NC(=S)NCc2cccnc2)cc1)N1CCCCC1" , system: RPMI-8226 leukemia. Its growth is 36.2

Sample "COc1nc2ccccc2s1" , system: RPMI-8226 leukemia. Its growth is 91.6

---

# Test system: SR leukemia
# procedureSummary: NCI-60 one-dose screen, 48 h
# measurementParameters: 10 µM unless noted
Compounds without any hit were thinned out: in the full panel of roughly 83,000, 20% have a hit. The source made the active and inactive calls. How the source made its calls: active means growth percent below 10; inactive means the rest.
Just give me one of these, please: active, inactive

Field: example entries. Status: answers known.
- structureSmiles: "CC(=O)c1ccc(C)cc1"
  classAssignment: "inactive"
- structureSmiles: "CCCCOC(=O)c1ccc(NC(=O)CCl)cc1"
  classAssignment: "active"
- structureSmiles: "NNC(=O)CCCCl"
  classAssignment: "inactive"
- structureSmiles: "O=C(O)CSCC(=O)Nc1cc(C(F)(F)F)ccc1Cl"
  classAssignment: "inactive"
- structureSmiles: "CC(=O)c1cccs1"
  classAssignment: "inactive"
- structureSmiles: "CCN(C(C)=O)c1ccc([N+](=O)[O-])cc1"
  classAssignment: "inactive"

Query: Assay result, entry "Nc1cccc2cccc(O)c12" — outcome?
Reply: inactive

Query: Assay result, entry "CCOC(=O)C(COS(C)(=O)=O)(COS(C)(=O)=O)C(=O)OCC" — outcome?
Reply: inactive
